Provenance of the data: the supplement of paper PMC4371806

system: Escherichia coli BW25113; test: plate-normalized OD600 growth (mean of duplicates) (OD600 (normalized)); higher = more growth (less inhibition); settings: temperature: 37°C; 24 h; 10 µM
Whole data set: some 1,600 compounds, median “plate-normalized OD600 growth (mean of duplicates)” near 0.31, cut for the lowest 2% near 0.23. The list comes from a sample in which the lowest values are over-represented; it also holds close analogues and randomly drawn compounds.
endpoint: plate-normalized OD600 growth
One number for each entry.

compound | system | plate-normalized OD600 growth
Cc1n[nH]c(=O)c2cc3c(C)n[nH]c(=O)c3cc12 | Escherichia coli BW25113 | 0.622
COc1ccc(-c2cn3ccccc3n2)cc1F | Escherichia coli BW25113 | 0.633
COc1ccc(N/C=C(/c2cc(O)ccc2O)[N+](=O)[O-])cc1 | Escherichia coli BW25113 | 0.624
CN1CCCN(Cc2cc(F)ccc2F)CC1 | Escherichia coli BW25113 | 0.623
O=[N+]([O-])c1ccc2[nH]c3c(c2c1)CCCC3NC1CCN(CCc2ccccc2)CC1 (configuration not stated) | Escherichia coli BW25113 | 0.578

// input: 3 compounds below; output: plate-normalized OD600 growth for each
1. C=CCOc1ccccc1CN1CCCN(C)CC1
2. Cc1cccc(NC(=O)COc2ccc(C)c(C)c2)c1
3. CCN(CC)CCCOc1ccc([N+](=O)[O-])cc1

1: 0.595; 2: 0.601; 3: 0.624

Fill in plate-normalized OD600 growth for each of the 3 compounds listed.
1. NC1CCCc2c1[nH]c1ccc([N+](=O)[O-])cc21 (configuration not stated)
2. CCOc1ccc(C(=O)c2ccc([N+](=O)[O-])cc2Cl)cc1
3. CN1CCCC1CCNC1CC2CCC1C2 (configuration not stated)

1. 0.552
2. 0.637
3. 0.637

Name the recorded plate-normalized OD600 growth for `Cc1onc(-c2ccccc2Cl)c1C(=O)NCc1ccc2c(c1)OCO2` .
0.619
